Values compiled from patent US20230365602A1.

Test: Snapshot pharmacokinetics in plasma after oral gavage
Type: in vivo, mice
Conditions: mouse, plasma, po; healthy BALB/c mice, 20 mg/kg gavage; Table 13; read-out: AUC (0-∞)
Please go through the items and note down their AUC(0-inf).
Answers are plain numbers, in µg·h/mL.

Please review the following examples before continuing.
- Molecule: "C[N+](C)(C)CCOP(=O)([O-])OCCCCCC1CCCCCCCCCCCCCC1 [Compound 19]"
  AUC(0-inf) / µg·h/mL: 967
- Molecule: "C[N+](C)(C)CCOP(=O)([O-])OCCCCCC1CCCCCCCCCCC1 [Compound 17]"
  AUC(0-inf) / µg·h/mL: 11.3

// next item, AUC(0-inf) requested
(Q) Looking for the measured AUC(0-inf) of C[N+](C)(C)CCOP(=O)([O-])OCCCCC1CCCCCCCCCCCCCC1 [Compound 18] , can you help?
(A) 262

---

Assay: Apparent solubility by nephelometry
Assay type: physicochemical
Conditions: FaSSIF, pH 6.5, fassif, kinetic from dmso stock; read-out: Solubility in FaSSIF (pH = 6.5)
Measurement label: solubility

(Q) Looking for the measured solubility of C[N+](C)(C)CCOP(=O)([O-])OCCCCCC1CCCCCCCCCCCCCC1 [Compound 19] , can you help?
(A) > 100 µM

---

Assay: Cytotoxicity, Human Monocytic Cell Line THP1
Type: cell-based
Source text: The in vitro antiparasitic activity of compound 5-cyclopentadecylpentyl (2-(trimethylammonio)ethyl) phosphate (19) against L. infantum (2 species), L. amazonensis, L. donovani and L. major is presented in Table 3, as well as the toxicity against the human monocytic cell Line THP1 and PMA-differentiated THP-1 cells.
Measurement label: CC50 (µM)
Numbers only, in µM.

(Q) Looking for the measured CC50 of CCCCCCCCCCCCCCCCOP(=O)([O-])OCC[N+](C)(C)C [Miltefosine, hexadecylphosphocholine, reference compound] , can you help?
(A) 28.6

---

Experiment: Snapshot pharmacokinetics in plasma after oral gavage
Type: in vivo, mice
Details: BALB/c, mouse, in vivo, po, 20 mg/kg
Measurement label: Tmax
State the result as a value with its unit after it.

(Q) Looking for the measured Tmax of CCCCCCCCCCCCCCCCOP(=O)([O-])OCC[N+](C)(C)C [Miltefosine, hexadecylphosphocholine, reference compound] , can you help?
(A) 24 h

---

Experiment: Biodistribution in tissues 72 h after oral gavage
Type: in vivo, mice
Details: BALB/c (Compound 19); NMRI (miltefosine), mouse, plasma; 72 hours after 20 mg/kg oral gavage; read-out: Plasma
Measurement label: concentration at 72 h (ng/mL)
Answers are plain numbers, in ng/mL.

(Q) Looking for the measured concentration at 72 h of C[N+](C)(C)CCOP(=O)([O-])OCCCCCC1CCCCCCCCCCCCCC1 , can you help?
(A) 2170

---

Assay: Biodistribution in tissues 72 h after oral gavage
Format: in vivo, mice
Settings: BALB/c (Compound 19); NMRI (miltefosine), mouse, liver; 72 hours after 20 mg/kg oral gavage; read-out: Liver
Procedure: Blood samples were collected from the tail vein at 0, 0.5, 0.75, 1, 3, 24 and 72 hours into heparinized tubes. Moreover, biodistribution of the molecule, 72h after administration, was determined in several organs of the treated mice, namely brain, liver, spleen, kidney, heart and bone marrow. […] J Chromatogr B, 865: 55-62) by liquid chromatography mass spectrometry (LC-MS/MS).
Measurement label: concentration at 72 h (ng/g)
One number for each entry, in ng/g.

(Q) Looking for the measured concentration at 72 h of C[N+](C)(C)CCOP(=O)([O-])OCCCCCC1CCCCCCCCCCCCCC1 , can you help?
(A) 11600

---

Please go through the items and note down their MTD at 7 days.
Assay: Maximum tolerated dose and dose range finding, 7 days oral gavage
Settings: BALB/c, mouse, in vivo, oral
One number for each entry, in mg/kg.

- Compound: "CCCCCCCCCCCCCCCCOP(=O)([O-])OCC[N+](C)(C)C [Miltefosine, hexadecylphosphocholine, reference compound]"
  MTD at 7 days, mg/kg: 50

// next item, MTD at 7 days requested
(Q) Looking for the measured MTD at 7 days of C[N+](C)(C)CCOP(=O)([O-])OCCCCCC1CCCCCCCCCCCCCC1 [Compound 19] , can you help?
(A) 100

---

Assay: Snapshot pharmacokinetics in plasma after oral gavage
Format: in vivo, mice
Conditions: BALB/c (Compound 19); NMRI (miltefosine), mouse, plasma; healthy mice, 20 mg/kg oral gavage; Table 10; read-out: Cmax (μg/mL)
Measurement label: Cmax (µg/mL)
Answers are plain numbers, in µg/mL.

(Q) Looking for the measured Cmax of C[N+](C)(C)CCOP(=O)([O-])OCCCCCC1CCCCCCCCCCCCCC1 , can you help?
(A) 15.4

---

Assay: Biodistribution in tissues 72 h after oral gavage
Type: in vivo, mice
Settings: BALB/c (Compound 19); NMRI (miltefosine), mouse, spleen; 72 hours after 20 mg/kg oral gavage; read-out: Spleen
Measurement label: concentration at 72 h (ng/g)
One number for each entry, in ng/g.

(Q) Looking for the measured concentration at 72 h of C[N+](C)(C)CCOP(=O)([O-])OCCCCCC1CCCCCCCCCCCCCC1 , can you help?
(A) 2310

---

Test: Biodistribution in tissues 72 h after oral gavage
Assay type: in vivo, mice
Conditions: BALB/c (Compound 19); NMRI (miltefosine), mouse, bone marrow; 72 h after 20 mg/kg oral gavage; read-out: Tissue/Plasma ratio Bone marrow
Description: Blood samples were collected from the tail vein at 0, 0.5, 0.75, 1, 3, 24 and 72 hours into heparinized tubes. Moreover, biodistribution of the molecule, 72h after administration, was determined in several organs of the treated mice, namely brain, liver, spleen, kidney, heart and bone marrow. […] J Chromatogr B, 865: 55-62) by liquid chromatography mass spectrometry (LC-MS/MS).
Measurement label: Kp at 72 h
Numbers only.

(Q) Looking for the measured Kp at 72 h of C[N+](C)(C)CCOP(=O)([O-])OCCCCCC1CCCCCCCCCCCCCC1 , can you help?
(A) 0.09

---

Tested on: PMA-differentiated THP-1 cells
Test: Toxicity MTT assay in PMA-differentiated THP-1 cells
Type: cell-based, human
Conditions: THP-1 macrophages; Table 1; read-out: Toxicity CC50 ± SD or NOAEL
Measurement label: CC50

(Q) Looking for the measured CC50 of C[N+](C)(C)CCCOP(=O)([O-])OCCCCCC1CCCCCCCCCCCCCC1 [Compound 20] , can you help?
(A) > 100 µM

---

Assay: Apparent solubility by nephelometry
Assay type: physicochemical
Conditions: pH 5, fessif, kinetic from dmso stock
Measurement label: solubility

(Q) Looking for the measured solubility of CCCCCCCCCCCCCCCCOP(=O)([O-])OCC[N+](C)(C)C [Miltefosine, hexadecylphosphocholine, reference compound] , can you help?
(A) > 100 µM

---

Experiment: Apparent solubility by nephelometry
Assay type: physicochemical
Details: water, kinetic from dmso stock; H2O; read-out: Solubility in H2O
Measurement label: solubility

(Q) Looking for the measured solubility of C[N+](C)(C)CCOP(=O)([O-])OCCCCCC1CCCCCCCCCCCCCC1 , can you help?
(A) < 10 µM

---

Experiment: Biodistribution in tissues 72 h after oral gavage
Type: in vivo, mice
Settings: BALB/c (Compound 19); NMRI (miltefosine), mouse, brain; 72 h after 20 mg/kg oral gavage; read-out: Tissue/Plasma ratio Brain
Measurement label: Kp at 72 h
Give bare numbers.

(Q) Looking for the measured Kp at 72 h of C[N+](C)(C)CCOP(=O)([O-])OCCCCCC1CCCCCCCCCCCCCC1 , can you help?
(A) 0.248

---

Assay: Snapshot pharmacokinetics in plasma after oral gavage
Format: in vivo, mice
Details: BALB/c (Compound 19); NMRI (miltefosine), mouse, in vivo, po, 20 mg/kg
Measurement label: half-life (min)
Answers are plain numbers, in min.

(Q) Looking for the measured half-life of CCCCCCCCCCCCCCCCOP(=O)([O-])OCC[N+](C)(C)C [Miltefosine, hexadecylphosphocholine, reference compound] , can you help?
(A) 2600

---

Assay: Snapshot pharmacokinetics in plasma after oral gavage
Format: in vivo, mice
Details: BALB/c (Compound 19); NMRI (miltefosine), mouse; healthy mice, 20 mg/kg oral gavage, plasma; Table 10; read-out: tmax
Measurement label: Tmax (h)
One number for each entry, in h.

(Q) Looking for the measured Tmax of C[N+](C)(C)CCOP(=O)([O-])OCCCCCC1CCCCCCCCCCCCCC1 , can you help?
(A) 24

---

Test: Apparent solubility by nephelometry
Assay type: physicochemical
Settings: FeSSIF, pH 5, fessif, kinetic from dmso stock; read-out: Solubility in FeSSIF (pH = 5)
Measurement label: solubility

(Q) Looking for the measured solubility of C[N+](C)(C)CCOP(=O)([O-])OCCCCCC1CCCCCCCCCCCCCC1 , can you help?
(A) > 100 µM

---

Assay: Biodistribution in tissues 72 h after oral gavage
Type: in vivo, mice
Conditions: BALB/c (Compound 19); NMRI (miltefosine), mouse, heart; 72 hours after 20 mg/kg oral gavage; read-out: Heart
Measurement label: concentration at 72 h (ng/g)
Numbers only, in ng/g.

(Q) Looking for the measured concentration at 72 h of C[N+](C)(C)CCOP(=O)([O-])OCCCCCC1CCCCCCCCCCCCCC1 , can you help?
(A) 1200
